B1: EEHEE_rd3_0130 (parent)
chain: TKIIVNGKTFTAPTEEEAQKIAEKLAKKAGLTVHKKNGTFELK

# Variants of: B1
# protocol_text: folding stability dG (cDNA display proteolysis); higher = more stable
# test_context: PBS, room temperature
Record form. Attribute: folding stability dG. Fill in for each entry.
Dear colleague, please return just the value in kcal/mol, with no unit written.

Name the reported folding stability dG value associated with the variant A22R -0.631

I have this variant here, E15N , and I need its recorded folding stability dG. 0.31

Query: folding stability dG; subject: L42H 0.251

Entry T14E : reported folding stability dG = ? -0.71
